Target: Endonuclease 8-like 2 (Homo sapiens) (UniProt Q969S2);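 also: fluorescence at 594 nm reports NEIL2 cutting and release of a quenched double-stranded DNA oligo substrate, reduced signal read as inhibition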
Sequence (Q969S2 whole entry): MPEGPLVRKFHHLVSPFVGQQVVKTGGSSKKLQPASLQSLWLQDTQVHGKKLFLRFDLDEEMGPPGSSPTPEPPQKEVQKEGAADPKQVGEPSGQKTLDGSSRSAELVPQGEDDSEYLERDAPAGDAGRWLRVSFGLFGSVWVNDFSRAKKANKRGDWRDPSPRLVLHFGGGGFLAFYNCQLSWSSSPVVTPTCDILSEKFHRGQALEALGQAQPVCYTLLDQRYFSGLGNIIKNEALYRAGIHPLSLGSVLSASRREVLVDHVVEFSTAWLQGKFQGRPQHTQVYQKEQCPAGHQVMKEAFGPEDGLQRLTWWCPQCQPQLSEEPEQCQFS
Settings: Compound Concentration 10.0 uM, Hit No
Description: Inhibition of NEIL2 by quantifying inhibition of NEIL2-mediated cleavage and dissociation of quenched duplex DNA oligonucleotides, measured as fluorescence at 594 nm.
Consider the following compounds; for each one, report its inhibition.
Numbers only, in %.

| COMPOUND | TGT | inhibition (%) |
| --- | --- | --- |
| Fc1cccc(/C=N/N=C/c2cccc(F)c2)c1 | Endonuclease 8-like 2 (Homo sapiens) (UniProt Q969S2) | -1.37 |
| Clc1cccc(-n2nnnc2NCc2ccccc2Oc2ccccn2)c1Cl | Endonuclease 8-like 2 (Homo sapiens) (UniProt Q969S2) | -1.88 |
| Cc1cnc(CNCC2(F)CCN(C(=O)c3ccc(F)c(Cl)c3)CC2)nc1 | Endonuclease 8-like 2 (Homo sapiens) (UniProt Q969S2) | 7.5 |
| Nc1nc(NCc2ccccc2)nc(-c2ccccc2CO)n1 | Endonuclease 8-like 2 (Homo sapiens) (UniProt Q969S2) | 5.12 |
| COc1cc(C(=O)N(CCC2CCCN2C)C/C(C)=C/c2ccccc2F)cc(OC)c1OC (stereo unspecified) | Endonuclease 8-like 2 (Homo sapiens) (UniProt Q969S2) | -1.62 |

As a next step, examine the compound that follows.
Asked: Specify measured inhibition for C[C@@H](OC[C@@]1(c2ccccc2)CC[C@]2(CCC(=O)N2)CN1)c1cc(C(F)(F)F)cc(C(F)(F)F)c1 .
Given back: 6.75
